All values here come from PubChem BioAssay.

experiment: S. pombe growth modifiers, basal conditions – strain 972, OD600, 24 h, no modulator, primary screen (AID 1090);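 further: basal condition with compound alone and no growth modifier present; test concentration not given here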; conditions: S. pombe 972 growth, higher = more signal, called active from +8 up or from −8 down
Label rule not met if z-score falls below -0.6; label rule met in every other case.

{"smiles-repr": "C=CC[C@@]1(C(N)=O)N=C(c2ccc(OCCCO)cc2)O[C@@H]1c1ccccc1N=[N+]=[N-]", "answer-label": "rule met"}
{"smiles-repr": "C=CC[C@]1(C(=O)NCCN2CCOCC2)N=C(c2ccc(OCCCO)cc2)O[C@H]1c1ccccc1N=[N+]=[N-]", "answer-label": "rule not met"}
{"smiles-repr": "COc1ccc([Si](C)(C)[C@H]2[C@H](CC(=O)N3CCC[C@H]3CO)O[C@@]3(C(=O)N(c4ccccc4)c4ccccc43)[C@@H]2C)cc1", "answer-label": "rule not met"}
{"smiles-repr": "CC(=O)N1Cc2ccccc2C[C@@]2(N=C(c3ccc(OCCCO)cc3)O[C@H]2c2ccccc2)C1=O", "answer-label": "rule not met"}
{"smiles-repr": "COCCOC(=O)N1C(=O)[C@@]2(c3cc(C#Cc4ccc(OC)cc4)ccc31)[C@H](c1ccc(OCCO)cc1)N1[C@H](c3ccccc3)[C@H](c3ccccc3)OC(=O)[C@H]1[C@@H]2C(=O)N1CCc2cc(OC)c(OC)cc2C1", "answer-label": "rule met"}
{"smiles-repr": "C/C=C/[C@H](CCn1cc([C@H](O)c2ccccc2)nn1)[Si](C)(C)c1ccc(OC)cc1", "answer-label": "rule not met"}
{"smiles-repr": "O=C1C[C@@](C(=O)O)(c2ccc([N+](=O)[O-])cc2)[C@@H](c2ccc(CO)cc2I)N1C1CCCCC1", "answer-label": "rule not met"}
{"smiles-repr": "CN(C)CCCC[C@@H]1NC(=O)[C@H]2C[C@@H](C(=O)NCCCCCNC(=O)CS)[C@@H](c3ccc(O)cc3)N2C1=O", "answer-label": "rule met"}
{"smiles-repr": "COCCCNC(=O)[C@@]1(Sc2ccc(C)cc2)CC(=O)N(Cc2ccccc2)[C@@H]1c1ccc(CO)cc1", "answer-label": "rule met"}
{"smiles-repr": "C=CCN1C(=O)[C@]2(Cc3ccccc31)N=C(c1ccc(OCCCO)cc1)O[C@@H]2c1ccccc1", "answer-label": "rule not met"}
{"smiles-repr": "CCOC(=O)C1=CC[C@@H](c2cccc(Cl)c2)N(S(=O)(=O)c2ccc(C)cc2)[C@H]1c1ccc(C#N)cc1", "answer-label": "rule met"}
{"smiles-repr": "COCCn1c(C(=O)N(C)C)cc2c1C[C@H]1CN(C(=O)c3ccccc3)[C@@](Cc3ccc(F)cc3)(C(=O)OC)[C@@H]21", "answer-label": "rule met"}
{"smiles-repr": "COc1ccc(C#Cc2ccc3c(c2)[C@]2(C(=O)N3)[C@H](c3ccc(OCCO)cc3)N3[C@H](c4ccccc4)[C@H](c4ccccc4)OC(=O)[C@H]3[C@@H]2C(=O)Nc2nc3ccccc3s2)cc1", "answer-label": "rule met"}
{"smiles-repr": "C=CCNC(=O)[C@H]1[C@@H]2C(=O)O[C@@H](c3ccccc3)[C@@H](c3ccccc3)N2[C@@H](c2ccc(O)cc2)[C@]12C(=O)Nc1ccc(C#Cc3ccc(OC)cc3)cc12", "answer-label": "rule met"}
